target: T1, a-Myc; assay: mono phage ELISA; a-Myc coated 100 ng/well; anti-M13-HRP
T1 construct: Coated at 100 ng/well in the phage ELISAs
Recorded OD 490 nm (a-myc) values for a group of binders are listed next.
A number alone suffices; assume OD490.

Worked set:
Binder | OD 490 nm (a-myc) (OD490)
모노 파아지 클론 F2 (scFv, V domains shown, also called F02) VH: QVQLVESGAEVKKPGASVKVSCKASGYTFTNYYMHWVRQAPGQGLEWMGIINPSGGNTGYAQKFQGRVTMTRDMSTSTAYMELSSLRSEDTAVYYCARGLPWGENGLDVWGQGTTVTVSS VL: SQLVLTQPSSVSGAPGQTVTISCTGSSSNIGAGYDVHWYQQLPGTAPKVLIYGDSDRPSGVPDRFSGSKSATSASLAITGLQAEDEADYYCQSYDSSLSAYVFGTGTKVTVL | 0.287
모노 파아지 클론 A7 (scFv, V domains shown, also called A07) VH: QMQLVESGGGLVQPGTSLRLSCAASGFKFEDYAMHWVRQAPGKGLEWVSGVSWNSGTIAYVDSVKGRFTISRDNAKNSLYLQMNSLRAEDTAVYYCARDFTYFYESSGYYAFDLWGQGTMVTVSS VL: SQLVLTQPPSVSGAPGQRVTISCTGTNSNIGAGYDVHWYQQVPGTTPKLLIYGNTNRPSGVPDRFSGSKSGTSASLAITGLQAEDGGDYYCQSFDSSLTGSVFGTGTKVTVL | 0.0797
모노 파아지 클론 B10 (scFv, V domains shown, also called 6B10) VH: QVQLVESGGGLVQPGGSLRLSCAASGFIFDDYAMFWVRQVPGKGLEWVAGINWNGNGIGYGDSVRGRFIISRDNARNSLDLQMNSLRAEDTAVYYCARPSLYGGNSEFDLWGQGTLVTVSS VL: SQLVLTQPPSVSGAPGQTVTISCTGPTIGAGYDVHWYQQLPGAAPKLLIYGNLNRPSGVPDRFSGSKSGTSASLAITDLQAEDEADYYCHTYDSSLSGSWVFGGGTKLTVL | 0.113

Field request: OD 490 nm (a-myc) | item: 모노 파아지 클론 D2 (scFv, V domains shown, also called D02) VH: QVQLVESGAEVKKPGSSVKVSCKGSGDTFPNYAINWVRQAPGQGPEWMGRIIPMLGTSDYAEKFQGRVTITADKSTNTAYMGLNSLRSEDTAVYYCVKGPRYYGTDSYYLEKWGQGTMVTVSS VL: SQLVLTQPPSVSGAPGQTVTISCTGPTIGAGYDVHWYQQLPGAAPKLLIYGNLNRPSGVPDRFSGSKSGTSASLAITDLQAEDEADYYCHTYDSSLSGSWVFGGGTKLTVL
0.303
